These entries and their values trace back to PubChem BioAssay (NCI).

Field: growth inhibition. Provide a value for each of the molecules that follow.
method notes: NCI Yeast Anticancer Drug Screen. Data for the rad50 strain (AID 155);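 further: 0% = growth of vehicle-only cultures of the same strain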
study conditions: S. cerevisiae rad50 strain growth inhibition; at 50.0 µM; hits give high values
Compounds without any hit were thinned out: in the full panel of roughly 79,000, 15% have a hit.
Numbers only, in %.

> print(dat)
                                   molecule  quantitative.readout
1  NC(=O)NCCSC1CCCCC1O (configuration not stated)                 -23.1
2              CC(C)C(CN)(c1ccccc1)c1ccccc1                  -4.4
3  COc1cc2c3cc1Oc1c(OC)c(OC)cc4c1C(Cc1ccc(O)c(c1)Oc1ccc(cc1)CC3N(C)CC2)CN(C)C4 (configuration not stated)                 -17.6

I'm hoping you can list growth inhibition for every molecule here, please.
1. CC1C(c2ccccc2)=NN(C)c2ccccc21 (configuration not stated)
2. O=C1ON(c2ccccc2)C(c2cccc(Cl)c2)N1c1ccccc1 (configuration not stated)
3. COC(=O)CNC(=O)C1CSC(C)(C)N1C=O (configuration not stated)
4. CCOc1cc2c(cc1O)C(O)C[C@@H]1[C@@H]2CC[C@]2(C)[C@@H](O)CC[C@@H]12 (some centres not stated)
5. N#Cc1nc(NC(=O)c2ccccc2C(=O)O)c(C#N)[nH]1
6. COC(=O)NN(C(=O)OC)C12CCCCC1N(C(=O)OC)N(C(=O)OC)c1c2ccc2cc(OC)ccc12 (configuration not stated)
7. CC1=CC(C/C(C)=C/COc2ccc3ccc(=O)oc3c2)OC1=O (configuration not stated)

Ans.
1. 19.6
2. 14.1
3. -5.25
4. 14.8
5. 1.5
6. 24.4
7. 8.15

I'm hoping you can list growth inhibition for every molecule here, please.
1. CCOc1c(N=Nc2ccc([N+](=O)[O-])cc2)c(C)nn1C(N)=S
2. Cc1ccc(S(=O)(=O)OCC2OC(C)(C)OC2COS(=O)(=O)c2ccc(C)cc2)cc1 (configuration not stated)
3. NCC1CC1
4. O=C(NO)c1ccc(Cl)cc1Cl
5. NCC(O)C(F)(F)F (configuration not stated)

Ans.
[-8, 25, 19.1, 57.9, -5.2]

* * *

Field: growth inhibition. Provide a value for each of the compounds that follow.
method notes: NCI Yeast Anticancer Drug Screen. Data for the bub3 strain (AID 167)
study conditions: S. cerevisiae bub3 mutant strain, at 50.0 µM, hits give high values
The panel holds about 79,000 compounds, 15% with a hit somewhere; the sample as a whole holds those more often.
Numbers only, in %.

> print(dat)
                                   compound  value.units  quantitative.readout
1  Cc1cccc(N=Cc2ccc(N(CCC#N)S(=O)(=O)c3ccccc3)cc2C)c1            %                 -10.9
2                      COC(=O)CCSSCCC(=O)OC            %                 -21.4

I'm hoping you can list growth inhibition for every compound here, please.
1. COc1ccc(C2=CSc3ccccc3N2)cc1
2. Cc1c(C(C)C(=O)O)c2ccccc2n1C (centres undefined)
3. c1ccc2c(c1)cc1ccc3cc4ccccc4c4nnc2c1c34
4. CN(Cc1ccccc1)C(OCc1ccccc1)c1ccccc1 (centres undefined)
5. CCOC(=O)C(C#N)C1=CC(=O)C(=O)c2ccc(OC)cc21 (centres undefined)
6. OCC1C2C=CC(C3C=CC32)C1CO (centres undefined)
7. CCCCCCCCCCCCCCCCCCCCCCCCCCCCCCCCCCCCSC(=N)N
8. CC1=CC(C/C(C)=C/COc2ccc3ccc(=O)oc3c2)OC1=O (centres undefined)

Ans.
36.3
56.8
-11.9
20.4
-9.95
-1.6
-0.25
-0.8

I'm hoping you can list growth inhibition for every compound here, please.
1. CSC(=O)Oc1ccc([N+](=O)[O-])cc1
2. O=c1[nH]cc(CS)c(=O)[nH]1

Ans.
1: 12.5; 2: 51

I'm hoping you can list growth inhibition for every compound here, please.
1. CC(=O)C1C(=O)NC(=O)C1=O (centres undefined)
2. O=C1CN2C(c3ccccc3)=NN(c3ccc([N+](=O)[O-])cc3)C2(c2ccccc2)c2cc(Cl)ccc2N1CC1CC1 (centres undefined)

Ans.
-18.9
11.2

* * *

method notes: NCI Yeast Anticancer Drug Screen. Data for the mec2-1 strain (AID 157)
study conditions: S. cerevisiae mec2-1 strain, at 50.0 µM, hits give high values
Method: Growth inhibition of yeast strains with defined genetic alterations is measured as a screen for potential anti-cancer activity. Selected strains with alterations in DNA damage repair or cell cycle control were exposed to compounds and growth inhibition was measured relative to vehicle treated controls. The strain used in this assay is mec2-1
Compounds without any hit were thinned out: in the full panel of roughly 79,000, 15% have a hit.
Field: growth inhibition. Provide a value for each of the compounds that follow.
Give bare numbers, in %.

> print(dat)
                                   compound  quantitative.readout
1  c1ccc(-c2cc(-c3cc(-c4ccccc4)n(-c4ccccc4)n3)nn2-c2ccccc2)cc1                 -13.2
2  O=P(CCC(CC(F)(F)C(F)(F)C(F)(F)C(F)(F)C(F)(F)C(F)(F)C(F)(F)F)P(=O)(N1CC1)N1CC1)(N1CC1)N1CC1 (stereo not drawn)                   3.5

Now let's try a different one.
Qu. Quick one: growth inhibition for Nn1c(=S)[nH]nc(/C=C/c2ccc3c(c2)OCO3)c1=O ?
Ans. 20.1

* * *

method notes: NCI Yeast Anticancer Drug Screen. Data for the bub3 strain (AID 167)
study conditions: S. cerevisiae bub3 mutant strain, at 50.0 µM, hits give high values
Compounds without any hit were thinned out: in the full panel of roughly 79,000, 15% have a hit.
readout: growth inhibition (%)
Give bare numbers, in %.

I'm hoping you can list growth inhibition for every compound here, please.
1. COC/C(=N/Nc1ccc([N+](=O)[O-])cc1[N+](=O)[O-])C(C)(C)C
2. Cc1ccc(Sc2cccc3c2C(=O)c2c(Sc4ccc(C)cc4)cccc2C3=O)cc1
3. O=C(O)c1ccc(B(O)O)cc1[N+](=O)[O-]
4. NC(=S)N/N=C/c1ncccc1N
5. C1=C(Oc2ccccc2)C2CC1C1CCCC21 (stereo not drawn)
6. Cc1cc2c(=O)c3ccccc3oc2c(C#N)c1C
7. NC(Cc1ccc(S(=O)(=O)O)cc1)C(=O)NC(Cc1ccc(S(=O)(=O)O)cc1)C(=O)NC(Cc1ccc(S(=O)(=O)O)cc1)C(=O)O (stereo not drawn)

Ans.
-20.9
-2.7
34.9
34.9
-5.95
18.3
9.3

I'm hoping you can list growth inhibition for every compound here, please.
1. O=[N+]([O-])c1cccc(S(=O)(=O)NC2c3ccccc3Oc3ccccc32)c1
2. Cc1cc(Cc2c(F)c(F)c(C(c3cc(C)no3)c3c(F)c(F)c(F)c(F)c3F)c(F)c2F)on1 (stereo not drawn)
3. CCOC(=O)/C(=C\c1ccc[nH]1)C(=O)c1ccccc1
4. [O-][n+]1cccc(CO)c1
5. CCN(CC)CCOC1CCCCC1Cc1ccccn1 (stereo not drawn)
6. Cc1nc2nncn2c(=O)[nH]1
7. NC(=O)c1cccnc1

Ans.
1: -10.7; 2: -26.1; 3: 20.1; 4: -15; 5: -3.65; 6: 6.1; 7: -12.9

I'm hoping you can list growth inhibition for every compound here, please.
1. O=C(O)CNC(=O)C(=O)c1c[nH]c2ccc([N+](=O)[O-])cc12
2. O=c1[nH]c2cc([N+](=O)[O-])ccc2nc1/C(=N/Nc1ccccc1)C(O)c1ccc(Cl)cc1Cl (stereo not drawn)

Ans.
-2.1
-7.3

I'm hoping you can list growth inhibition for every compound here, please.
1. c1ccc2sc(-c3nc4ccccc4s3)nc2c1
2. CCCCNC(=O)Oc1c(Cl)cc(Cl)c(Cl)c1[N+](=O)[O-]

Ans.
[8.3, -11.1]

I'm hoping you can list growth inhibition for every compound here, please.
1. CCc1ccc(O)cc1
2. C=C(C)C(=O)OC1C[C@H](COC(C)=O)C2CC=C(CO)C2C2OC(=O)C(=C)[C@H]12 (stereo partly drawn)
3. COc1cc(C(=O)NO)c(Br)c(OC)c1OC
4. NC(CC(=O)N/C=N/C(=O)O)C(=O)O (stereo not drawn)
5. C1C[S][Ge]2([S]CCS1)[S]CCSCC[S]2

Ans.
1: -11.9; 2: -1.25; 3: -7.2; 4: 6.45; 5: -30.6

I'm hoping you can list growth inhibition for every compound here, please.
1. Nc1on(C(=O)c2ccccc2)c(=O)c1Cc1ccccc1
2. Cc1ccc2c(c1)[nH]c(=S)n2C=C(C#N)C#N
3. CC(=O)Nc1nc(Cl)c2ncn(C3OC(COC(=O)c4ccccc4)CC3OC(=O)c3ccccc3)c2n1 (stereo not drawn)

Ans.
1. 2.25
2. -0.55
3. 10.6

I'm hoping you can list growth inhibition for every compound here, please.
1. COc1cc(C=O)c([N+](=O)[O-])cc1OC
2. CN(C)N1C(=O)c2ccccc2NC1c1ccccc1 (stereo not drawn)

Ans.
-8.5
18.9
